Measurement target: VZV polymerase (Varicella-zoster virus)
Sequence (P09252 whole entry): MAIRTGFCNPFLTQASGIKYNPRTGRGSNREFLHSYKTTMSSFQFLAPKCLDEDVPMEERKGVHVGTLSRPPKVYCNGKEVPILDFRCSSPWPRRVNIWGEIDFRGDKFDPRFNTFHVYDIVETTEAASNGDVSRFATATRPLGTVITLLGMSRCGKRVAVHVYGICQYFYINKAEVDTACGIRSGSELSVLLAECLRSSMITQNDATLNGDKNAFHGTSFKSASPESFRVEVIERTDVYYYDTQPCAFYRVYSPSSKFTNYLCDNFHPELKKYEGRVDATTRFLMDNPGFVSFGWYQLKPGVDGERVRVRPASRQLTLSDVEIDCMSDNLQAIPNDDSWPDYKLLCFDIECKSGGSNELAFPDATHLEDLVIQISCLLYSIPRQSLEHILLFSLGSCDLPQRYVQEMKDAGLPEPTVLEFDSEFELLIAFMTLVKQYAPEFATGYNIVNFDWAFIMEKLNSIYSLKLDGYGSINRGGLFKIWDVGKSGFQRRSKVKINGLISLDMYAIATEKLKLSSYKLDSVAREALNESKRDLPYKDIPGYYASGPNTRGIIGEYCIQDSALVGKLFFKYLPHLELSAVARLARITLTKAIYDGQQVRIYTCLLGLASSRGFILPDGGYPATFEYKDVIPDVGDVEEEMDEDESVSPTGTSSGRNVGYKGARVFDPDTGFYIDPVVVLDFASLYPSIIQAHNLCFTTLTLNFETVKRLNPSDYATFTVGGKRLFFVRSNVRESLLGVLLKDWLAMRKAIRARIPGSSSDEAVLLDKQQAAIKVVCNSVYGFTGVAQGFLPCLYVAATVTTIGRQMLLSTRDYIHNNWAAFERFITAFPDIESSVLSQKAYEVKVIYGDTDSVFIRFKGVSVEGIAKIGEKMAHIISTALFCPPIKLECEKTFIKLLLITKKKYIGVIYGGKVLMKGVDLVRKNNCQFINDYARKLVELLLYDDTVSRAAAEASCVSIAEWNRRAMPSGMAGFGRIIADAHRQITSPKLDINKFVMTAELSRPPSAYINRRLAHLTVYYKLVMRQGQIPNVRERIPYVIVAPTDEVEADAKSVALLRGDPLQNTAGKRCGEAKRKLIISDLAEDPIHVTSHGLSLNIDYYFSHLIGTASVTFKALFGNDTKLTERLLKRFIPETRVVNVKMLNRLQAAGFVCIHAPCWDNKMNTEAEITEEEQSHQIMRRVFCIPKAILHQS
Test: Polymerase scintillation proximity assay (SPA), VZV
Format: biochemical
Property measured: IC50 (µM)
Reply with just the number (in µM).

Ask: I would be grateful if you could share the reported IC50 for `Cn1cc(C(=O)NCc2ccc(Cl)cc2)c(=O)c2cc(CN3CCOCC3)cc(C#Cc3ccccn3)c21` .
Reply: 0.14

Ask: I would be grateful if you could share the reported IC50 for `C[C@@H](O)C#Cc1cc(CN2CCOCC2)cc2c(=O)c(C(=O)NCc3ccc(Cl)cc3)cn(C)c12` .
Reply: 0.48

Ask: I would be grateful if you could share the reported IC50 for `CCCCN(CC#Cc1cc(CN2CCOCC2)cc2c(=O)c(C(=O)NCc3ccc(Cl)cc3)cn(C)c12)CCO` .
Reply: 0.33

Ask: I would be grateful if you could share the reported IC50 for `Cn1cc(C(=O)NCc2ccc(Cl)cc2)c(=O)c2cc(CN3CCOCC3)cc(C#CCCO)c21` .
Reply: 0.36

Ask: I would be grateful if you could share the reported IC50 for `Cn1cc(C(=O)NCc2ccc(Cl)cc2)c(=O)c2cc(CN3CCOCC3)cc(C#CCO)c21` .
Reply: 0.36

Ask: I would be grateful if you could share the reported IC50 for `Cn1cc(C(=O)NCc2ccc(Cl)cc2)c(=O)c2cc(CN3CCOCC3)cc(C#Cc3cccnc3)c21` .
Reply: 0.15

Ask: I would be grateful if you could share the reported IC50 for `C[C@H](O)C#Cc1cc(CN2CCOCC2)cc2c(=O)c(C(=O)NCc3ccc(Cl)cc3)cn(C)c12` .
Reply: 0.18

###

Measurement target: HCMV polymerase (Human cytomegalovirus, UniProt P08546)
Construct: made in house; host or cells: recombinant baculovirus-infected SF-9 cells
Sequence (P08546 whole entry): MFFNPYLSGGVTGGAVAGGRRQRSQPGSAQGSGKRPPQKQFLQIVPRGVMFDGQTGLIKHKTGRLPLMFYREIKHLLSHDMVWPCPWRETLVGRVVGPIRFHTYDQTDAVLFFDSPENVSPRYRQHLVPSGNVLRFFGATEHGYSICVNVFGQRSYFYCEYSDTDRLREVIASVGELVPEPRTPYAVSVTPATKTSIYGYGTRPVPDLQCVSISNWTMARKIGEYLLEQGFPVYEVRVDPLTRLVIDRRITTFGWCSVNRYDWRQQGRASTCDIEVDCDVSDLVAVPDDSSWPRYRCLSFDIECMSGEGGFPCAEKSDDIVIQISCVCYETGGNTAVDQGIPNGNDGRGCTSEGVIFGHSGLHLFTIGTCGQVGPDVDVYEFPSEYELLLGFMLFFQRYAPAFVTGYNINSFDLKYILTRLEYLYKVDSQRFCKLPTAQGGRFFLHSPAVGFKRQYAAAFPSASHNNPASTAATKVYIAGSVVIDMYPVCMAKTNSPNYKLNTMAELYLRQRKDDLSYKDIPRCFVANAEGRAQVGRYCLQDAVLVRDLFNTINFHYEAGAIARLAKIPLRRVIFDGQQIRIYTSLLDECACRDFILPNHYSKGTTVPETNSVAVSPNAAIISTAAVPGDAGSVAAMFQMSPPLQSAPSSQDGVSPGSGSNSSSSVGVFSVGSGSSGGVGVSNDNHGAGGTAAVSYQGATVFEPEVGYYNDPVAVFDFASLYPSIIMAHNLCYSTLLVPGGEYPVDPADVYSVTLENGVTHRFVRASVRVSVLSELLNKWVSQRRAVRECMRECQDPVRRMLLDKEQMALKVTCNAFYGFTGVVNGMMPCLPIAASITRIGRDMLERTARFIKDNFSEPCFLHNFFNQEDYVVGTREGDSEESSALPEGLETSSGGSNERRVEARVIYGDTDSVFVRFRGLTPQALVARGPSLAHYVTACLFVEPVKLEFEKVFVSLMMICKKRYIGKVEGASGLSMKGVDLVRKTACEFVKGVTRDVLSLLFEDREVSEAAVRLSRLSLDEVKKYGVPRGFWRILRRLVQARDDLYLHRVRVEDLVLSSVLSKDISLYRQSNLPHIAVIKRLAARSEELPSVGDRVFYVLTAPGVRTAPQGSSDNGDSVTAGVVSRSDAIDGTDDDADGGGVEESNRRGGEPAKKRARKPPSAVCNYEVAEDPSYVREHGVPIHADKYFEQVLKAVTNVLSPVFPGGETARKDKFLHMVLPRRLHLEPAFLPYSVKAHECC
Test: HCMV polymerase scintillation proximity assay (SPA)
Assay type: biochemical
Condition set: CMV polymerase
So basically: is IC50 under 0.8 µM? Then y. Not under? Then n.

> print(dat)
                                   compound                        measurement.target  assigned.class
1  CCCCN(CC#Cc1cc(CN2CCOCC2)cc2c(=O)c(C(=O)NCc3ccc(Cl)cc3)cn(C)c12)CCO  HCMV polymerase (Human cytomegalovirus, UniProt P08546)               y
2  Cn1cc(C(=O)NCc2ccc(Cl)cc2)c(=O)c2cc(CN3CCOCC3)cc(C#CCF)c21  HCMV polymerase (Human cytomegalovirus, UniProt P08546)               y

Ask: Would you kindly verify if IC50 of `Cn1cc(C(=O)NCc2ccc(Cl)cc2)c(=O)c2cc(CN3CCOCC3)cc(C#CCN3CCN(CCO)CC3)c21` is strictly less than 0.8 µM?
Reply: n

Ask: Would you kindly verify if IC50 of Cn1cc(C(=O)NCc2ccc(Cl)cc2)c(=O)c2cc(CN3CCOCC3)cc(C#CCN3CCCC(CO)C3)c21 (stereo not shown) is strictly less than 0.8 µM?
Reply: y

Ask: Would you kindly verify if IC50 of `Cc1cncn1CC#Cc1cc(CN2CCOCC2)cc2c(=O)c(C(=O)NCc3ccc(Cl)cc3)cn(C)c12` is strictly less than 0.8 µM?
Reply: y

Ask: Would you kindly verify if IC50 of `Cn1cc(C(=O)NCc2ccc(Cl)cc2)c(=O)c2cc(CN3CCOCC3)cc(C#CCN3CCC(O)CC3)c21` is strictly less than 0.8 µM?
Reply: n

Ask: Would you kindly verify if IC50 of `Cn1cc(C(=O)NCc2ccc(Cl)cc2)c(=O)c2cc(CN3CCOCC3)cc(C#CCN3CCC[C@@H]3CO)c21` is strictly less than 0.8 µM?
Reply: y

Ask: Would you kindly verify if IC50 of `Cn1cc(C(=O)NCc2ccc(Cl)cc2)c(=O)c2cc(CN3CCOCC3)cc(C#CCCCO)c21` is strictly less than 0.8 µM?
Reply: y

Ask: Would you kindly verify if IC50 of Cn1cc(C(=O)NCc2ccc(Cl)cc2)c(=O)c2cc(CN3CCOCC3)cc(C#CCN3CCC(O)C3)c21 (stereo not shown) is strictly less than 0.8 µM?
Reply: n

Ask: Would you kindly verify if IC50 of CC(O)CC#Cc1cc(CN2CCOCC2)cc2c(=O)c(C(=O)NCc3ccc(Cl)cc3)cn(C)c12 (stereo not shown) is strictly less than 0.8 µM?
Reply: y

Ask: Would you kindly verify if IC50 of `Cn1cc(C(=O)NCc2ccc(Cl)cc2)c(=O)c2cc(CN3CCOCC3)cc(C#CCO)c21` is strictly less than 0.8 µM?
Reply: n
